Assay: Quantitative High-Throughput drug screen in 47 multiple myeloma cell lines against the NCATS MIPE library collection: Karpas417_ECACC cell viability assay (AID 1918961); further: potency means the concentration at half of the fitted maximal effect
Conditions: Karpas417 myeloma viability, CellTiter-Glo ATP luminescence, 48 h
Records with an inconclusive call do not appear. The source made the active and inactive calls. The call rests on the fitted dose curve; in most records, active means well fitted cell-killing curve with a large enough effect; inconclusive means small, poorly fitted or top-dose-only effect, or effect the other way; inactive means no such curve, though single readings can be large or run the other way.
Quantity measured: Potency

Cc1ccc2c(c1)c1c(n2CCc2ccc(C)nc2)CCN(C)C1 ... inactive
CCN(CCO)CCCOc1ccc2c(Nc3cc(CC(=O)Nc4cccc(F)c4)[nH]n3)ncnc2c1 ... 469 nM (active)
Nc1ncnc2c1ncn2[C@@H]1O[C@H](CO)[C@@H](O)[C@@H]1O ... 118 nM (active)
O=c1[nH]c(=O)n([C@H]2C[C@@H](O)[C@@H](CO)O2)cc1I ... inactive
